Target: μ-calpain (Homo sapiens, UniProt P07384)
Construct: purchased Nakalai Tesque
Sequence (P07384 1-714): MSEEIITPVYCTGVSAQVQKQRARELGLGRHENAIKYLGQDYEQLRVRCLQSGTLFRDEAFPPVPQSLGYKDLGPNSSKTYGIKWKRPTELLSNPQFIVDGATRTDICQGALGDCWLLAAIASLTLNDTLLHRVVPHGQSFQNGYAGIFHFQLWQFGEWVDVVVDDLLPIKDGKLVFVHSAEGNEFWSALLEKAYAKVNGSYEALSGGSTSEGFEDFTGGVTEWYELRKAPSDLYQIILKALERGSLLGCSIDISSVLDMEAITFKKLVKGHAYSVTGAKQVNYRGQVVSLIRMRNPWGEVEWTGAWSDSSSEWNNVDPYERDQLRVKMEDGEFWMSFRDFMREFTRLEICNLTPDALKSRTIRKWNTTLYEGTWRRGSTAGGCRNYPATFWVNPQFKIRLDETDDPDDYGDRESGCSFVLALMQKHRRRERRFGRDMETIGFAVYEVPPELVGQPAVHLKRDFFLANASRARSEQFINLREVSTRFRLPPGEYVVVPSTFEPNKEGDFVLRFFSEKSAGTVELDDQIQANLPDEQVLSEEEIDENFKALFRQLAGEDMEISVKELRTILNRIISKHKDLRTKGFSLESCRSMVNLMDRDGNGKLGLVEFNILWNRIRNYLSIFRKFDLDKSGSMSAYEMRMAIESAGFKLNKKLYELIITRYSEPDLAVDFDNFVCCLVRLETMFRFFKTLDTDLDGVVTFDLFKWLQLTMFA
Sequence (P04632 1-268 partner): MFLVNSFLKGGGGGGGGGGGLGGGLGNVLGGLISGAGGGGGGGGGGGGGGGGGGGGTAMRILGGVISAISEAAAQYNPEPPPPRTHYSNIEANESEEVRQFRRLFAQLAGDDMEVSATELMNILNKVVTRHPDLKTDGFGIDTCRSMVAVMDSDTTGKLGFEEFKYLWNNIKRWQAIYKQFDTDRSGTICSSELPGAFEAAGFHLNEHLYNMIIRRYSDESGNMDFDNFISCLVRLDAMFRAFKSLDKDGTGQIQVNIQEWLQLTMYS
Test: μ-Calpain-inhibitory activity (casein substrate)
Format: biochemical
Settings: 60 minutes at 30° C., pH 7.4, 4 mM calcium chloride
pIC50: −log10 of the molar value. Peptide text beside a SMILES is read from it. * marks the point of attachment. Tos = Cc1ccc(S(=O)(=O)*)cc1
Recorded metric: pIC50

Bench note, μ-calpain (Homo sapiens, UniProt P07384): Cc1ccc(S(=O)(=O)N[C@H](C(=O)N[C@H](C=O)Cc2ccccc2)C(C)C)cc1 [Compound 46] (Tos-Val-Phe-aldehyde) , pIC50 reads 7.74

(a) CC(C)[C@H](NS(=O)(=O)c1ccc(Cl)cc1)C(=O)N[C@H](C=O)Cc1ccccc1
(b) Cc1ccc(S(=O)(=O)N[C@H](C(=O)N[C@H](C=O)CC(C)C)C(C)C)cc1 [Compound 37] (Tos-Val-Leu-aldehyde)
Select one. Lower pIC50: a or b Please identify the chosen entry by its label.
b
